system: PDE 4 (cAMP specific PDE)
assay.notes: Phosphodiesterase inhibiting effect, PDE 4 separated from dog kidney
Format: biochemical
measurement.setup: isozyme from the kidney of a dog; [3H]-cAMP or [3H]-cGMP substrate; read-out: PDE inhibiting activity : IC50(nM) PDE4
observed.property: IC50 (nM)
Report only the number, with the unit nM understood.

Answered examples (5):
> print(dat)
                                   molecule  observed.property  number
1  COc1ccc(CNc2nc(C(=O)Nc3ccccc3)nc3sc(-c4ccc(F)cc4)c(C)c23)cc1Cl [Compound 90]               IC50    8400
2  COc1ccc(CNc2nc(C(=O)Nc3ccccc3)nc3scc(C)c23)cc1Cl [Compound 91]               IC50    3400
3  COc1ccc(CNc2nc(-c3ccncc3)nc3sc(C(=O)N4CCOCC4)c(C)c23)cc1Cl [Compound 27]               IC50    3700
4  COc1ccc(CNc2nc(C(=O)Nc3ccccc3)nc3sc(-c4ccncc4)c(C)c23)cc1Cl [Compound 68]               IC50   10000
5  COc1ccc(CNc2nc(-c3cccnc3)nc3sc(C(=O)N4CCOCC4)c(C)c23)cc1Cl [Compound 7]               IC50    1700

Query :: Value lookup for IC50; key = COc1ccc(CNc2nc(C(=O)Nc3ccccc3)nc3sc(-c4ccccc4)cc23)cc1Cl [Compound 94]
Result :: 5600

Query :: Request: COc1ccc(CNc2nc(-c3ccncc3)nc3sc(C(=O)N4CCN(C)CC4)c(C)c23)cc1Cl [Compound 29]
Result :: 6900

Value source: patent EP1329454A1
